# Tested on: Lip3
# Construct: catalytic triad Ser150, Asp207, His267; primers encode N-terminal MNNYIID and C-terminal CLKSLL before the His tag
# Experiment description: p-nitrophenol release at […] nm, Lineweaver-Burk
# Format: biochemical, uncultured bacterium
# Experimental setup: 0.1 M Tris-HCl pH 8.0, 35 °C, 3 % acetonitrile
Can you tell me K M (M.10^-3) for the items I'm about to list?
Mention the unit after the number when you answer.

Study these solved cases before continuing.
Molecule | K M (M.10^-3)
CCCCC(=O)Oc1ccc([N+](=O)[O-])cc1 [pNP-pentanoate] | 1.52 ± 0.20 M∙10^−3
CC(=O)Oc1ccc([N+](=O)[O-])cc1 [pNP-acetate] | 2.38 ± 0.56 M∙10^−3
CCCCCCCCCC(=O)Oc1ccc([N+](=O)[O-])cc1 [pNP-decanoate] | 1.03 ± 0.12 M∙10^−3
CCCCCCCC(=O)Oc1ccc([N+](=O)[O-])cc1 [pNP-octanoate] | 0.36 ± 0.04 M∙10^−3

Moving on to another molecule below.
K M (M.10^-3) in this record for CCCC(=O)Oc1ccc([N+](=O)[O-])cc1 [pNP-butanoate] : 1.05 ± 0.16 M∙10^−3

Taken from paper PMC4717575.
